System: colo320 colorectal cancer tumor model
Conditions: 15 mg/kg once a week for four weeks; Table 8
Method: Test objective: To investigate the antitumor efficacy of the above compounds in an animal tumor model of colo320 colorectal cancer. Test drug: Polypeptide conjugate, Irinotecan, Belotecan and normal saline control group. Test animals: 6-8 weeks old BALB/c mice, all female. Passaging was performed every three days, and cells within 15 generations were used. 7.5×10^6 corresponding cells were injected into right chests of nude mice subcutaneously. […]
Where a SMILES comes first, the peptide text is derived from it. The star is where a group is joined. Belotecan = CC[C@@]1(O)C(=O)OCc2c1cc1n(c2=O)Cc2c-1nc1ccccc1c2CCN(C(C)C)*; X2 = CCCCN(CCc1c2c(nc3ccccc13)-c1cc3c(c(=O)n1C2)COC(=O)[C@]3(O)CC)*; X8 = CC[C@@]1(O)C(=O)OCc2c1cc1n(c2=O)Cc2c-1nc1ccccc1c2CCN(C1CCCC1)*; X1 = CC[C@@]1(O)C(=O)OCc2c1cc1n(c2=O)Cc2c-1nc1ccccc1c2CCN(C1CCC1)*; Propanoyl(3-maleimido) = O=C1C=CC(=O)N1CCC(=O)*; PEG6 = NCCOCCOCCOCCOCCOCCOCCC(=O)O
observable: Mouse weight (%)

So, CC[C@@]1(O)C(=O)OCc2c1cc1n(c2=O)Cc2c-1nc1ccccc1c2CCN(C(=O)[C@H](CC(C)C)NC(=O)[C@H](CC(N)=O)NC(=O)[C@H](C)NC(=O)[C@H](C)NC(=O)CCOCCOCCOCCOCCOCCOCCNC(=O)CCN1C(=O)C=CC1=O)C(C)C [MI-6PEG-AANL-Belotecan] ({Propanoyl(3-maleimido)-PEG6}-AANL-Belotecan) ? Its Mouse weight (%) was +22%

Report Mouse weight (%) for each item below.
1. CC[C@@]1(O)C(=O)OCc2c1cc1n(c2=O)Cc2c-1nc1ccccc1c2CCN(C(=O)[C@H](CC(C)C)NC(=O)[C@H](Cc1ccccc1)NC(=O)CNC(=O)CNC(=O)CCOCCOCCOCCOCCOCCOCCNC(=O)CCN1C(=O)C=CC1=O)C(C)C [MI-6PEG-GGFL-Belotecan] ({Propanoyl(3-maleimido)-PEG6}-GGFL-Belotecan)
2. CCc1c2c(nc3ccc(OC(=O)N4CCC(N5CCCCC5)CC4)cc13)-c1cc3c(c(=O)n1C2)COC(=O)[C@]3(O)CC [Irinotecan, reference compound]
3. CC[C@@]1(O)C(=O)OCc2c1cc1n(c2=O)Cc2c-1nc1ccccc1c2CCN(C(=O)[C@H](CC(C)C)NC(=O)[C@H](CC(N)=O)NC(=O)[C@H](C)NC(=O)[C@H](C)NC(=O)CCOCCOCCOCCOCCOCCOCCNC(=O)CCN1C(=O)C=CC1=O)C1CCCC1 [MI-6PEG-AANL-D8] ({Propanoyl(3-maleimido)-PEG6}-AANL-X8)
4. CC[C@@]1(O)C(=O)OCc2c1cc1n(c2=O)Cc2c-1nc1ccccc1c2CCN(C(=O)[C@H](CC(C)C)NC(=O)[C@H](CC(N)=O)NC(=O)[C@H](C)NC(=O)[C@H](C)NC(=O)CCOCCOCCOCCOCCOCCOCCNC(=O)CCN1C(=O)C=CC1=O)C1CCC1 [MI-6PEG-AANL-D7] ({Propanoyl(3-maleimido)-PEG6}-AANL-X1)
5. CCCCN(CCc1c2c(nc3ccccc13)-c1cc3c(c(=O)n1C2)COC(=O)[C@]3(O)CC)C(=O)[C@H](CC(C)C)NC(=O)[C@H](CC(N)=O)NC(=O)[C@H](C)NC(=O)[C@H](C)NC(=O)CCOCCOCCOCCOCCOCCOCCNC(=O)CCN1C(=O)C=CC1=O [MI-6PEG-AANL-D4] ({Propanoyl(3-maleimido)-PEG6}-AANL-X2)

a:
["+27%", "+35%", "+33%", "+29%", "+17%"]

====

Tested on: sarcoma SJSA-1 tumor model
Experiment: Efficacy in animal model of sarcoma SJSA-1, 30 mg/kg once a week for two weeks (Example 40)
Type: in vivo, BALB/c mice
Conditions: 30 mg/kg once a week for two weeks; Day 1
Where a SMILES comes first, the peptide text is derived from it. The star is where a group is joined. X2 = CCCCN(CCc1c2c(nc3ccccc13)-c1cc3c(c(=O)n1C2)COC(=O)[C@]3(O)CC)*; X5 = CC[C@@]1(O)C(=O)OCc2c1cc1n(c2=O)Cc2c-1nc1ccccc1c2CCN(CC(C)C)*; Propanoyl(3-maleimido) = O=C1C=CC(=O)N1CCC(=O)*; PEG6 = NCCOCCOCCOCCOCCOCCOCCC(=O)O
observable: SJSA-1 (sarcoma tissue) mean tumor volume (mm^3) Day 1
Numbers only, in mm^3.

Example entries begin here.
Sample CC[C@@]1(O)C(=O)OCc2c1cc1n(c2=O)Cc2c-1nc1ccccc1c2CCN(CC(C)C)C(=O)[C@H](CC(C)C)NC(=O)[C@H](CC(N)=O)NC(=O)[C@H](C)NC(=O)[C@H](C)NC(=O)CCOCCOCCOCCOCCOCCOCCNC(=O)CCN1C(=O)C=CC1=O [MI-6PEG-AANL-D5] ({Propanoyl(3-maleimido)-PEG6}-AANL-X5) , system: sarcoma SJSA-1 tumor model. Its SJSA-1 (sarcoma tissue) mean tumor volume (mm^3) Day 1 is 139.89

# SJSA-1 (sarcoma tissue) mean tumor volume (mm^3) Day 1 measured on sarcoma SJSA-1 tumor model for item CCCCN(CCc1c2c(nc3ccccc13)-c1cc3c(c(=O)n1C2)COC(=O)[C@]3(O)CC)C(=O)[C@H](CC(C)C)NC(=O)[C@H](CC(N)=O)NC(=O)[C@H](C)NC(=O)[C@H](C)NC(=O)CCOCCOCCOCCOCCOCCOCCNC(=O)CCN1C(=O)C=CC1=O [MI-6PEG-AANL-D4] ({Propanoyl(3-maleimido)-PEG6}-AANL-X2) = 142.01

Moving on to the next molecule.
Measured SJSA-1 (sarcoma tissue) mean tumor volume (mm^3) Day 1 for this entry `CC[C@@]1(O)C(=O)OCC2=C1C=C1c3nc4ccccc4c(CCN(C(=O)OCc4ccc(NC(=O)[C@H](CC(N)=O)NC(=O)[C@H](C)NC(=O)[C@H](C)NC(=O)CCOCCOCCOCCOCCOCCOCCNC(=O)CCN5C(=O)C=CC5=O)cc4)C(C)C)c3CN1C2` on sarcoma SJSA-1 tumor model: 131.25

====

Test system: colo320 colorectal cancer tumor model
Settings: Table 14 (Example 43); dose 45 mg/kg, once a week for four weeks; BALB/c mice
Where a SMILES comes first, the peptide text is derived from it. The star is where a group is joined. NEt(2-(20S-CPT-7-yl)ethyl) = CCN(CCc1c2c(nc3ccccc13)-c1cc3c(c(=O)n1C2)COC(=O)[C@]3(O)CC)*; Belotecan = CC[C@@]1(O)C(=O)OCc2c1cc1n(c2=O)Cc2c-1nc1ccccc1c2CCN(C(C)C)*; X7 = CC[C@@]1(O)C(=O)OCc2c1cc1n(c2=O)Cc2c-1nc1ccccc1c2CCN(C)*; Propanoyl(3-maleimido) = O=C1C=CC(=O)N1CCC(=O)*; PEG6 = NCCOCCOCCOCCOCCOCCOCCC(=O)O
observable: colo320 (colorectal cancer cell) growth rate (%)
Numbers only, in %.

Reported colo320 (colorectal cancer cell) growth rate (%) of CC[C@@]1(O)C(=O)OCc2c1cc1n(c2=O)Cc2c-1nc1ccccc1c2CCN(C)C(=O)[C@H](CC(C)C)NC(=O)[C@H](Cc1ccccc1)NC(=O)CNC(=O)CNC(=O)CCOCCOCCOCCOCCOCCOCCNC(=O)CCN1C(=O)C=CC1=O [MI-6PEG-GGFL-D1] ({Propanoyl(3-maleimido)-PEG6}-GGFL-X7) : 766.16

Batch lookup, colo320 (colorectal cancer cell) growth rate (%) per entry.
1. CC[C@@]1(O)C(=O)OCc2c1cc1n(c2=O)Cc2c-1nc1ccccc1c2CCN(C(=O)[C@H](CC(C)C)NC(=O)[C@H](Cc1ccccc1)NC(=O)CNC(=O)CNC(=O)CCOCCOCCOCCOCCOCCOCCNC(=O)CCN1C(=O)C=CC1=O)C(C)C [MI-6PEG-GGFL-Belotecan] ({Propanoyl(3-maleimido)-PEG6}-GGFL-Belotecan)
2. CCN(CCc1c2c(nc3ccccc13)-c1cc3c(c(=O)n1C2)COC(=O)[C@]3(O)CC)C(=O)CNC(=O)[C@H](CCCCN)NC(=O)[C@H](C)NC(=O)[C@H](C)NC(=O)CCOCCOCCOCCOCCOCCOCCNC(=O)CCN1C(=O)C=CC1=O [MI-6PEG-AAKG-D2] ({Propanoyl(3-maleimido)-PEG6}-AAKG-{NEt(2-(20S-CPT-7-yl)ethyl)})

a:
1: 671.56; 2: 470.58

====

Assay: Tumor homogenate activation efficiency, breast cancer tissue (Examples 28, 37)
Type: in vitro ADME
Conditions: pH 5.0, 37° C., 2 h; Table 10
Where a SMILES comes first, the peptide text is derived from it. The star is where a group is joined. NEt(2-(20S-CPT-7-yl)ethyl) = CCN(CCc1c2c(nc3ccccc13)-c1cc3c(c(=O)n1C2)COC(=O)[C@]3(O)CC)*; X2 = CCCCN(CCc1c2c(nc3ccccc13)-c1cc3c(c(=O)n1C2)COC(=O)[C@]3(O)CC)*; X1 = CC[C@@]1(O)C(=O)OCc2c1cc1n(c2=O)Cc2c-1nc1ccccc1c2CCN(C1CCC1)*; Propanoyl(3-maleimido) = O=C1C=CC(=O)N1CCC(=O)*; PEG6 = NCCOCCOCCOCCOCCOCCOCCC(=O)O
Record form. Attribute: Percentage of release efficiency (%) Breast cancer tissue (SKBR3). Fill in for each entry.
One number for each entry, in %.

Give Percentage of release efficiency (%) Breast cancer tissue (SKBR3) for each of the items listed below.
1. CCN(CCc1c2c(nc3ccccc13)-c1cc3c(c(=O)n1C2)COC(=O)[C@]3(O)CC)C(=O)[C@H](CC(C)C)NC(=O)[C@H](CC(N)=O)NC(=O)[C@H](C)NC(=O)[C@H](C)NC(=O)CCOCCOCCOCCOCCOCCOCCNC(=O)CCN1C(=O)C=CC1=O [MI-6PEG-AANL-D2] ({Propanoyl(3-maleimido)-PEG6}-AANL-{NEt(2-(20S-CPT-7-yl)ethyl)})
2. CCCCN(CCc1c2c(nc3ccccc13)-c1cc3c(c(=O)n1C2)COC(=O)[C@]3(O)CC)C(=O)[C@H](CC(C)C)NC(=O)[C@H](CC(N)=O)NC(=O)[C@H](C)NC(=O)[C@H](C)NC(=O)CCOCCOCCOCCOCCOCCOCCNC(=O)CCN1C(=O)C=CC1=O [MI-6PEG-AANL-D4] ({Propanoyl(3-maleimido)-PEG6}-AANL-X2)

a:
[73.5, 75.3]

Form: molecule = CC[C@@]1(O)C(=O)OCc2c1cc1n(c2=O)Cc2c-1nc1ccccc1c2CCN(C(=O)[C@H](CC(C)C)NC(=O)[C@H](CC(N)=O)NC(=O)[C@H](C)NC(=O)[C@H](C)NC(=O)CCOCCOCCOCCOCCOCCOCCNC(=O)CCN1C(=O)C=CC1=O)C1CCC1 [MI-6PEG-AANL-D7] ({Propanoyl(3-maleimido)-PEG6}-AANL-X1) ; Percentage of release efficiency (%) Breast cancer tissue (SKBR3) = 72.3
